System: antibodies in sera from SARS patients (sera 1a, 1b, 2, 6, 37, 62, London, SARS-yellow, SARS-green)
Assay type: binding, human
Binding of serum 1b to linear peptide (PEPSCAN-ELISA) by entry:
Number only, no unit.

AEASKKPRQKRTATK :: 0.1
DRLNQLESKVSGKGQ :: 0.1
QASSRSSSRSRGNSR :: 0.1
SRGNSPARMASGGGE :: 0.2
GNSRNSTPGSSRGNS :: 0.5
SRSSSRSRGNSRNST :: 0.1
SSRSRGNSRNSTPGS :: 0.5
RSRGNSRNSTPGSSR :: 0.4

Consider now this further sequence.
Binding of serum 1b to linear peptide (PEPSCAN-ELISA) lookup needed for "GSQASSRSSSRSRGN" , thanks. 0.1
